Molecular target: human FXR (NR1H4) (Homo sapiens)
Construct: host or cells: CHO (Chinese hamster ovary) reporter cells
Sequence (Q96RI1 whole entry): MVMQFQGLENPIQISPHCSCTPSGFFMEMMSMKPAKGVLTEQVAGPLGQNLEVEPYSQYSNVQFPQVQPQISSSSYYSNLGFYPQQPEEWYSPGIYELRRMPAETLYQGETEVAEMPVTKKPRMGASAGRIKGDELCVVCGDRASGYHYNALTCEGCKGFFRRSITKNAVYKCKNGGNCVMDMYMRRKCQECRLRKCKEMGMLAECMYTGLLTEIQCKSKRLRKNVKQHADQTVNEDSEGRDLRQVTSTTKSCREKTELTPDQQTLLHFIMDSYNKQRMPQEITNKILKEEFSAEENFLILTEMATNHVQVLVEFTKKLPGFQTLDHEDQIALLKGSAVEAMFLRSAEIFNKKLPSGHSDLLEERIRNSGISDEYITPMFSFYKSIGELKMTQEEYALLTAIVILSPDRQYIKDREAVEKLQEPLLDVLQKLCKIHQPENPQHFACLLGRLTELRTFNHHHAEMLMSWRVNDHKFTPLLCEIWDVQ
Test: Human FXR (NR1H4) Assay (Gal4 promoter driven luciferase reporter, CHO cells)
Assay type: cell-based
Provide the reported EC50 of each item.

Requested field: EC50. Item: "CC[C@H]1[C@@H](O)[C@@H]2[C@H](CC[C@]3(C)[C@@H]([C@H](C)CCS(N)(=O)=O)CC[C@@H]23)[C@@]2(C)CC[C@@H](O)C[C@@H]12"
1000 to 10000 nM

"CC[C@H]1[C@@H](O)[C@@H]2[C@H](CC[C@]3(C)[C@@H]([C@H](C)CCS(=O)(=O)NCc4ccc(OC)cc4)CC[C@@H]23)[C@@]2(C)CC[C@@H](O)C[C@@H]12" ?
> 10000 nM

Again, but for "CC[C@H]1[C@@H](O)[C@@H]2[C@H](CC[C@]3(C)[C@@H]([C@H](C)CCS(=O)(=O)NC(C)=O)CC[C@@H]23)[C@@]2(C)CC[C@@H](O)C[C@@H]12"
1000 to 10000 nM

Param item: "CC[C@H]1[C@@H](O)[C@@H]2[C@H](CC[C@]3(C)[C@@H]([C@H](C)CCCCS(N)(=O)=O)CC[C@@H]23)[C@@]2(C)CC[C@@H](O)C[C@@H]12"
100 to 1000 nM

Follow-up item: "CC[C@H]1[C@@H](O)[C@@H]2[C@H](CC[C@]3(C)[C@@H]([C@H](C)CCCc4cc(F)c(O)c(F)c4)CC[C@@H]23)[C@@]2(C)CC[C@@H](O)C[C@@H]12"
1000 to 10000 nM

Here is the next compound: "CC[C@H]1[C@@H](O)[C@@H]2[C@H](CC[C@]3(C)[C@@H]([C@H](C)CCOP(=O)(O)c4ccccc4)CC[C@@H]23)[C@@]2(C)CC[C@@H](O)C[C@@H]12"
1000 to 10000 nM

Also CC[C@H]1[C@@H](O)[C@@H]2[C@H](CC[C@]3(C)[C@@H]([C@H](C)CCCOP(=O)(Oc4ccccc4)c4ccccc4)CC[C@@H]23)[C@@]2(C)CC[C@@H](O)C[C@@H]12 (stereo partly shown) , if possible.
1000 to 10000 nM

How about this compound: "CC[C@H]1[C@@H](O)[C@@H]2[C@H](CC[C@]3(C)[C@@H]([C@H](C)CC=CCS(N)(=O)=O)CC[C@@H]23)[C@@]2(C)CC[C@@H](O)C[C@@H]12"
100 to 1000 nM

Entry to check: "CC[C@H]1[C@@H](O)[C@@H]2[C@H](CC[C@]3(C)[C@@H]([C@H](C)CCC(=O)N(O)Cc4ccccc4)CC[C@@H]23)[C@@]2(C)CC[C@@H](O)C[C@@H]12"
1000 to 10000 nM

Entry "CC(C)N(O)C(=O)CC[C@@H](C)[C@H]1CC[C@H]2[C@@H]3[C@H](O)C[C@@H]4C[C@H](O)CC[C@]4(C)[C@H]3CC[C@]12C" please
> 10000 nM
